Examples of compounds with documented IC50 follow.
# ASSAYED SYSTEM: BRD4(BD1) (Homo sapiens, UniProt O60885)
# Construct: a BRD4(BD1) synthetic gene that includes a TEV cleavage site was purchased from LifeTechnology; made in house
# PROTOCOL DESCRIPTION: HTRF assay, disruption of bromodomain/histone peptide interaction
# Assay type: binding
# CONDITION LABEL: HTRF; Table 1′, TABLE 2; read-out: BRD4(BD1) IC50

| COMPOUND | IC50 [µM] |
| --- | --- |
| CCCCn1c(=O)[nH]c(=O)c2c1ncn2CC [Compound 6a, 3-Butyl-7-ethylxanthine] | 13 |
| CCn1c(CSc2n[nH]c(N)n2)nc2c1c(=O)[nH]c(=O)n2Cc1ccc(Cl)cc1 [Compound 22a] | 26.4 |
| CCn1cnc2c1c(=O)[nH]c(=O)n2Cc1ccc(Cl)cc1 [Compound 7a] | 2.6 |
| CCCCc1c(C)nc2nc(SCc3nc4c(c(=O)[nH]c(=O)n4CCCC)n3CC)nn2c1C [Compound 26b] | 5 |

Hey, just so you know, these numbers are from patent US11225481B2.
